biological target: Gastrin/cholecystokinin type B receptor (Cavia porcellus); assay: Tested for inhibition of [3H]pCCK-8 specific binding to cholecystokinin type B receptor in guinea pig brain cortex
MEASURED PROPERTY: pKi
# reply with the number alone; pKi is -log10 of concentration in mol/L

Data request: pKi for CC(Cc1c[nH]c2ccccc12)(NC(=O)OC1[C@H]2C[C@@H]3C[C@@H](C[C@H]1C3)C2)C(=O)NCCc1cccc2ccccc12 (stereo partly specified) ?
Data returned: 7.05

====

target: Gastrin/cholecystokinin type B receptor (Cavia porcellus); test: Tested for inhibition of [3H]pCCK-8 specific binding to cholecystokinin type B receptor in guinea pig brain cortex
Entries and their measured Ki follow.
Provide the reading as a plain figure in nM.

CC(Cc1cccc2ccccc12)(NC(=O)OC1[C@H]2C[C@@H]3C[C@@H](C[C@H]1C3)C2)C(=O)N(CCc1ccccc1)CC(=O)O (stereo partly drawn) : 134
CC(Cc1c[nH]c2ccccc12)(NC(=O)OC1[C@H]2C[C@@H]3C[C@@H](C[C@H]1C3)C2)C(=O)NCCc1ccc([N+](=O)[O-])cc1 (stereo partly drawn) : 79

Then there is this molecule:
Data request: Tell me the measured Ki of COc1ccc(CCNC(=O)C(C)(Cc2c[nH]c3ccccc23)NC(=O)OC2[C@H]3C[C@@H]4C[C@@H](C[C@H]2C4)C3)cc1 (stereo partly drawn) , please.
Data returned: 115
